- target desc: UniProt P35462
- Sequence (P35462 whole entry): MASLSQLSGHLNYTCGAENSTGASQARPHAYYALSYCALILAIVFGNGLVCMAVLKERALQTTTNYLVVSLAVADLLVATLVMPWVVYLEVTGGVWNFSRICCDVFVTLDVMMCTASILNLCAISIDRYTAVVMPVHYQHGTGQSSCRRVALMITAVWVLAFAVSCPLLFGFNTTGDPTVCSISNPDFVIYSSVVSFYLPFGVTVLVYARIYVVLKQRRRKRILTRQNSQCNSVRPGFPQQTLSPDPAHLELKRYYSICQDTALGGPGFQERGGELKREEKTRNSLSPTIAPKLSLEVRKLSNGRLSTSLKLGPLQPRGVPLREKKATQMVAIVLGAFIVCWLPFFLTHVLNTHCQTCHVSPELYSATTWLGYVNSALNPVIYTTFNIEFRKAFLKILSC
- assay explanation: Human D3 receptor binding assay ([^3H]-7-OH-DPAT)
- test parameters: CHO cells expressing hD3R, geometric mean of 2-5 determinations unless marked b (single determination), read-out: hD3 in CHO cells Ki
pKi: −log10 of the molar value.
measured attribute: pKi

compound	readout number
CCOc1ccc(S(=O)(=O)Nc2cc3c(nc2C)CCN(CC)CC3)cc1	6.82
CCc1nc2c(cc1NS(=O)(=O)c1ccc([C@H]3CCCCO3)cc1)CCN(C)CC2	7.56
COc1nc2c(cc1NS(=O)(=O)c1ccc(C3CC(F)CCO3)cc1)CCN(C)CC2 (single isomer, unassigned; diastereomer-2) [Example 109]	8.50
CCN1CCc2cc(NS(=O)(=O)c3ccc(OC4CCCC4)cc3)c(OC)nc2CC1	9.49

###

- target desc: human dopamine D2 receptor (hD2R) (Homo sapiens, UniProt P14416)
- Sequence (P14416 whole entry): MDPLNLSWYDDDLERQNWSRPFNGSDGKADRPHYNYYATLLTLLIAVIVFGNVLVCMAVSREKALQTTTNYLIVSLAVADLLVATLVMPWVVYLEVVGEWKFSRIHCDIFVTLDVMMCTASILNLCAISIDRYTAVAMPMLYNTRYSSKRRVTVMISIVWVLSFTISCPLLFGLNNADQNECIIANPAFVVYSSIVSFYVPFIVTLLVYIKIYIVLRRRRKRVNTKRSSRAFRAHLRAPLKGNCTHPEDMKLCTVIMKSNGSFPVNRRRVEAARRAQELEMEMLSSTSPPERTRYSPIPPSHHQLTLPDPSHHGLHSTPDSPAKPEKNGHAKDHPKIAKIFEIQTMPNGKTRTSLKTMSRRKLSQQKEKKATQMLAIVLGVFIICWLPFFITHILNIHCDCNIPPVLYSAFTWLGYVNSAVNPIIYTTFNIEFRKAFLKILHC
- assay explanation: Human D2 receptor binding assay ([^3H]-Spiperone)
- test parameters: CHO cells expressing hD2R, geometric mean of 2-5 determinations unless marked b (single determination)
Documented Ki across a set of compounds

compound	Ki, nM
COc1nc2c(cc1NS(=O)(=O)c1ccc3c(c1)CCCO3)CCN(C)CC2 [Example 31]	564
CCN1CCc2cc(NS(=O)(=O)c3ccc4c(c3)CC(C)O4)c(OC)nc2CC1 (stereo not shown) [Example 67]	660
COc1nc2c(cc1NS(=O)(=O)c1ccc(C3(OC)CCCC3)cc1)CCN(C)CC2 [Example 95]	45.3
COc1nc2c(cc1NS(=O)(=O)c1ccc(C3(F)CCOCC3)cc1)CCN(C)CC2 [Example 80]	238

###

Quick reference: pKi of the listed items.
- target desc: human dopamine D2 receptor (hD2R) (Homo sapiens)
- assay explanation: Human D2 receptor binding assay ([^3H]-Spiperone)
- test parameters: CHO cells expressing hD2R, geometric mean of 2-5 determinations unless marked b (single determination)
pKi: −log10 of the molar value.

molecule	value prefix	pKi
CCN1CCc2cc(NS(=O)(=O)c3ccc([C@]4(O)C[C@@H](OC)C4)nc3)c(OC)nc2CC1	<	5.34
COc1nc2c(cc1NS(=O)(=O)c1ccc(C3CCOCC3)cc1)CCN(C)CC2	=	6.98
COc1nc2c(cc1NS(=O)(=O)c1ccc(O[C@H]3CCOC3)cc1)CCN(C)CC2	=	6.68
CCN1CCc2cc(NS(=O)(=O)c3ccc(C4(F)CCCCC4)nc3)c(OC)nc2CC1	=	7.34
COc1nc2c(cc1NS(=O)(=O)c1ccc(C3(OC)CCCC3)nc1)CCN(C)CC2	=	6.18
CCN1CCc2cc(NS(=O)(=O)c3ccc(C4(F)CCC(OC)CC4)cc3)c(OC)nc2CC1 (single isomer, unassigned)	=	6.14
COc1nc2c(cc1NS(=O)(=O)c1ccc([C@H]3C[C@@H](OC)C3)cc1)CCN(C)CC2	=	6.51
COc1nc2c(cc1NS(=O)(=O)c1ccc(C(C)C)cc1)CCN(C)CC2	=	7.84

###

- target desc: human dopamine D2 receptor (hD2R) (Homo sapiens, UniProt P14416)
- assay explanation: Human D2 receptor binding assay ([^3H]-Spiperone)
- test parameters: CHO cells expressing hD2R, geometric mean of 2-5 determinations unless marked b (single determination)
- Experimental: Human D2 Receptor and Human D3 Receptor Binding Assays: These determined ligand and tissue concentrations were utilized in time course studies to determine linearity and equilibrium conditions for binding. […] The hD2R assay buffer contains 50 mM Tris (pH 7.4 @ 37° C.), 100 mM NaCl and 1 mM MgCl2. […] Non-specific binding was determined by radioligand binding in the presence of a saturating concentration of Haldol (10 μM). […] Ki values were then calculated according to the Cheng-Prusoff equation: […]
pKi: −log10 of the molar value.
Property: pKi; scope: individual compounds

compound	pKi
CCN1CCc2cc(NS(=O)(=O)c3ccc(C)c(C)c3)c(OC)nc2CC1 [Example 61]	6.41
CCO[C@H]1C[C@@](F)(c2ccc(S(=O)(=O)Nc3cc4c(nc3OC)CCN(C)CC4)cc2)C1 [Example 132]	6.44
COc1nc2c(cc1NS(=O)(=O)c1cnc(OC3CCCC3)nc1)CCN(C)CC2 [Example 18]	6.85
CCN1CCc2nc(OC)c(NS(=O)(=O)c3ccc(C(C)C)cc3)cc2C(C)C1 (centres unmarked) [Example 56]	6.79
CCN1CCc2cc(NS(=O)(=O)c3ccc(C4CCCC4)nc3)c(OC)nc2CC1 [Example 102]	6.49
CCCc1ccc(S(=O)(=O)Nc2cc3c(nc2OC)CCN(CC)CC3)cc1 [Example 62]	7.28
CCCN1CCc2cc(NS(=O)(=O)c3ccc(C(C)C)cc3)c(OC)nc2CC1 [Example 49]	6.99
COc1nc2c(cc1NS(=O)(=O)c1cnc(OC3CCC3)c(C)c1)CCN(C)CC2 [Example 126]	7.96
